target: KRAS G13C (Homo sapiens (Human), UniProt P01116+P62937, G13C); assay: Ras-Raf disruption/FRET/MOA assay (BRAF RBD, Cyclophilin A); type: biochemical; settings: read-out: KRAS G13C FRET IC50
Sequence (P01116 other isoform, or with tags, fused parts or gaps G13C, one chain of several): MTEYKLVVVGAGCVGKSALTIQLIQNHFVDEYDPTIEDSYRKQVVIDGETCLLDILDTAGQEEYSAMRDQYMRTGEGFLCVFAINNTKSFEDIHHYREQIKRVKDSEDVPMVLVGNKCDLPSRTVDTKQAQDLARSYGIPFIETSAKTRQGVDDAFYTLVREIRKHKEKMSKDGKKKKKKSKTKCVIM
MEASURED METRIC: IC50

| COMPOUND | MEAS VALUE |
| --- | --- |
| CCn1c(-c2cnccc2COC)c2c3cc(ccc31)-c1cc(O)cc(c1)C[C@H](NC(=O)C(C)C1CCOCC1)C(=O)N1CCC[C@H](N1)C(=O)OCC(C)(C)C2 (stereo partly drawn) | 0.1 to 1 µM |
| CCn1c(-c2cccnc2[C@H](C)OC)c2c3cc(ccc31)-c1cc(O)cc(c1)C[C@H](NC(=O)[C@H](C(C)C)N(C)C(=O)N1CC(N(C)C)C1)C(=O)N1CCC[C@H](N1)C(=O)OCC(C)(C)C2 | 0.1 to 1 µM |
| CCn1c(-c2cccnc2[C@H](C)OC)c2c3cc(ccc31)-c1cc(O)cc(c1)C[C@H](NC(=O)[C@H](C(C)C)N(C)C(=O)[C@@H]1CCN(C(=O)OC)C1)C(=O)N1CCC[C@H](N1)C(=O)OCC(C)(C)C2 | 0.01 to 0.1 µM |
| CCn1c(-c2cccnc2[C@H](C)OC)c2c3cc(ccc31)-c1cc(O)cc(c1)C[C@H](NS(=O)(=O)N1CCC1)C(=O)N1CCC[C@H](N1)C(=O)OCC(C)(C)C2 | > 10 µM |
| CCn1c(-c2cnccc2COC)c2c3cc(ccc31)-c1cc(O)cc(c1)C[C@H](NC(=O)[C@H](C(C)C)N(C)C(=O)[C@H]1CCN(C[C@H](C)O)C1)C(=O)N1CCC[C@H](N1)C(=O)OCC(C)(C)C2 | 0.1 to 1 µM |

// compound `CCn1c(-c2cccnc2[C@H](C)OC)c2c3cc(ccc31)-c1csc(n1)C[C@H](NC(=O)[C@H](C(C)C)N(C)C(=O)N1C[C@@H]3OCCN(C)[C@H]3C1)C(=O)N1CCC[C@H](N1)C(=O)OCC(C)(C)C2` , assay KRAS G13C (Homo sapiens (Human), UniProt P01116+P62937, G13C), IC50 value: 0.1 to 1 µM

// compound `CCn1c(-c2cccnc2[C@H](C)OC)c2c3cc(ccc31)-c1csc(n1)C[C@H](NC(=O)[C@H](C(C)C)N(C)C(=O)N1CCO[C@@H](CN(C)C)C1)C(=O)N1CCC[C@H](N1)C(=O)OCC(C)(C)C2` , assay KRAS G13C (Homo sapiens (Human), UniProt P01116+P62937, G13C), IC50 value: 0.1 to 1 µM

// compound `CCn1c(-c2cccnc2[C@H](C)OC)c2c3cc(ccc31)-c1cccc(c1)C[C@H](NC(=O)[C@H](C(C)C)N(C)C(=O)N1CC(OC)C1)C(=O)N1CCC[C@H](N1)C(=O)OCC(C)(C)C2` , assay KRAS G13C (Homo sapiens (Human), UniProt P01116+P62937, G13C), IC50 value: 0.1 to 1 µM

// compound `CCn1c(-c2cccnc2[C@H](C)OC)c2c3cc(ccc31)-c1csc(n1)C[C@H](NC(=O)C1(F)CCC1)C(=O)N1CCC[C@H](N1)C(=O)OCC(C)(C)C2` , assay KRAS G13C (Homo sapiens (Human), UniProt P01116+P62937, G13C), IC50 value: 0.1 to 1 µM

// compound `CCn1c(-c2cccnc2[C@H](C)OC)c2c3cc(ccc31)C1=C[C@@H](O)CN(C1)C[C@H](NC(=O)[C@H]1[C@H](C)[C@@H]1C)C(=O)N1CCC[C@H](N1)C(=O)OCC(C)(C)C2` , assay KRAS G13C (Homo sapiens (Human), UniProt P01116+P62937, G13C), IC50 value: 0.01 to 0.1 µM

// compound `CCn1c(-c2cccnc2[C@H](C)OC)c2c3cc(ccc31)-c1csc(n1)C[C@H](NC(=O)[C@H](C(C)C)N(C)C(=O)N1CC[C@@]13CCCN(C)C3)C(=O)N1CCC[C@H](N1)C(=O)OCC(C)(C)C2` , assay KRAS G13C (Homo sapiens (Human), UniProt P01116+P62937, G13C), IC50 value: 0.1 to 1 µM

// compound CCn1c(-c2cccnc2[C@H](C)OC)c2c3cc(ccc31)-c1cc(O)cc(c1)C[C@H](NC(=O)[C@H](C(C)C)N(C)C(=O)C1CC(=O)N(C3CC3)C1)C(=O)N1CCC[C@H](N1)C(=O)OCC(C)(C)C2 (stereo partly drawn) , assay KRAS G13C (Homo sapiens (Human), UniProt P01116+P62937, G13C), IC50 value: 0.01 to 0.1 µM

* * *

biological target: KRAS G12V (Homo sapiens (Human), UniProt P01116+P62937, G12V); test: Ras-Raf disruption/FRET/MOA assay, KRAS G12V; type: biochemical; details: read-out: KRAS G12V FRET IC50
Sequence (P01116 other isoform, or with tags, fused parts or gaps G12V, one chain of several): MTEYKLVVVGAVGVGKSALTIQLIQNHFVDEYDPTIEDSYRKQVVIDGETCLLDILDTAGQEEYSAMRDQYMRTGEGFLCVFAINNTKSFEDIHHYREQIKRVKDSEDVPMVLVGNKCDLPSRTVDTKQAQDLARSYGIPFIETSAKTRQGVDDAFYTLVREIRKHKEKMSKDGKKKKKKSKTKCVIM
pIC50: −log10 of the molar value.
MEASURED METRIC: pIC50

| CHEMICAL SMILES | TARGET OR SYSTEM | pIC50 |
| --- | --- | --- |
| CCn1c(-c2cccnc2COC)c2c3cc(ccc31)-c1cc(O)cc(c1)C[C@H](NC(=O)[C@H](C(C)C)N(C)C(=O)CCNC1=NCCO1)C(=O)N1CCC[C@H](N1)C(=O)OCC(C)(C)C2 | KRAS G12V (Homo sapiens (Human), UniProt P01116+P62937, G12V) | 5.00 to 6.00 |
| CCn1c(-c2cnccc2COC)c2c3cc(ccc31)-c1cc(O)cc(c1)C[C@H](NC(=O)[C@H](C(C)C)N(C)C(=O)c1ccc(NC(=O)[C@@H]3CN3)cn1)C(=O)N1CCC[C@H](N1)C(=O)OCC(C)(C)C2 | KRAS G12V (Homo sapiens (Human), UniProt P01116+P62937, G12V) | 5.00 to 6.00 |
| CCn1c(-c2cnccc2COC)c2c3cc(ccc31)-c1cc(O)cc(c1)C[C@H](NC(=O)[C@H](C(C)C)N(C)C(=O)CN1C(=O)[C@H]3N[C@H]3C1=O)C(=O)N1CCC[C@H](N1)C(=O)OCC(C)(C)C2 | KRAS G12V (Homo sapiens (Human), UniProt P01116+P62937, G12V) | 5.00 to 6.00 |

Lab note: `CCn1c(-c2cnccc2COC)c2c3cc(ccc31)-c1cc(O)cc(c1)C[C@H](NC(=O)[C@@H](CCNC1=NCCO1)C(C)C)C(=O)N1CCC[C@H](N1)C(=O)OCC(C)(C)C2` gave pIC50 of 5.00 to 6.00

Lab note: `CCn1c(-c2cnccc2COC)c2c3cc(ccc31)-c1cccc(c1)C[C@H](NC(=O)[C@H](C(C)C)N1CC[C@H](CN=C=Nc3ccc(OC)cc3)C1)C(=O)N1CCC[C@H](N1)C(=O)OCC(C)(C)C2` gave pIC50 of 5.00 to 6.00

Lab note: `CCn1c(-c2cnccc2COC)c2c3cc(ccc31)-c1cc(O)cc(c1)C[C@H](NC(=O)[C@H](C(C)C)N(C)C(=O)C1CCN(C(=O)[C@@H]3CN3)CC1)C(=O)N1CCC[C@H](N1)C(=O)OCC(C)(C)C2` gave pIC50 of 6.00 to 7.00

* * *

Target: KRAS G12D (Homo sapiens (Human), UniProt P01116+P62937, G12D)
Sequence (P01116 other isoform, or with tags, fused parts or gaps G12D): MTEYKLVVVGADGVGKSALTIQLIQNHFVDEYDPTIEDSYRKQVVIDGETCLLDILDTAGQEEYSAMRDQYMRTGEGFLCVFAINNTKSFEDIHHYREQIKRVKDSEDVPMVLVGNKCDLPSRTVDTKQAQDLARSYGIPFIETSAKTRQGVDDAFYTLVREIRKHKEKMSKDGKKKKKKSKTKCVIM
Sequence (P62937 whole entry): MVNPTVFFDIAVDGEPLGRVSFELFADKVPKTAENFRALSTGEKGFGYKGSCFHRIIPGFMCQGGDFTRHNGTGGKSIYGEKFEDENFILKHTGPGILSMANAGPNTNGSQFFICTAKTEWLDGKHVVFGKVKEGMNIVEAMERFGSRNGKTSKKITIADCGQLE
Assay: Ras-Raf disruption/FRET/MOA assay (BRAF RBD, Cyclophilin A)
Format: biochemical
Conditions: read-out: KRAS G12D FRET IC50
Protocol: Compound is present in plate wells as a 10-point 3-fold dilution series starting at a final concentration of 30 μM. After incubation at 25° C. for 3 hours, a mixture of Anti-His Eu—W1024 and anti-GST allophycocyanin is then added to assay sample wells at final concentrations of 10 nM and 50 nM, respectively, and the reaction incubated for an additional 1.5 hours. […]
Recorded IC50 values for a group of molecules are listed next.

| MOLECULE | IC50 |
| --- | --- |
| CCn1c(-c2cccnc2[C@H](C)OC)c2c3cc(ccc31)-c1csc(n1)C[C@H](NC(=O)[C@H](C(C)C)N(C)C(=O)N1CC[C@@H]1CN)C(=O)N1CCC[C@H](N1)C(=O)OCC(C)(C)C2 | 0.1 to 1 µM |
| CCn1c(-c2cccnc2[C@H](C)OC)c2c3cc(ccc31)-c1csc(n1)C[C@H](NC(=O)[C@H](C(C)C)N(C)C(=O)N(C)C1COC1)C(=O)N1CCC[C@H](N1)C(=O)OCC(C)(C)C2 | 0.1 to 1 µM |
| CCn1c(-c2cccnc2[C@H](C)OC)c2c3cc(ccc31)-c1csc(n1)C[C@H](NC(=O)[C@H](C(C)C)N(C)C(=O)N1CC[C@H](O)C1)C(=O)N1CCC[C@H](N1)C(=O)OCC(C)(C)C2 | 0.1 to 1 µM |

Lab note: `CCn1c(-c2cccnc2[C@H](C)OC)c2c3cc(ccc31)-c1csc(n1)C[C@H](NC(=O)[C@H](C(C)C)N(C)C(=O)N1CC(C(=O)O)C1)C(=O)N1CCC[C@H](N1)C(=O)OCC(C)(C)C2` gave IC50 of 1 to 10 µM

Lab note: `CCn1c(-c2cccnc2[C@H](C)OC)c2c3cc(ccc31)-c1cc(O)cc(c1)C[C@H](NC(=O)[C@H](C(C)C)N(C)C(=O)[C@H]1CCN(C(=O)CCc3ccccc3)C1)C(=O)N1CCC[C@H](N1)C(=O)OCC(C)(C)C2` gave IC50 of 0.1 to 1 µM
